pIC50 listing for selected molecules.
Target: human Gal-1 (hGal-1) (Homo sapiens, UniProt P09382, C131S/C17S/C43S/C61S/C89S)
Assay: Competitive binding assay: biotinylated hGal-1 binding to microplate-adsorbed asialofetuin (ASF)
Conditions: IC50 values from several measurements given as geomean
Protocol: The inhibitory activity of compounds is determined in competitive binding assays. This spectrophotometric assay measures the binding of biotinylated human Gal-3 (hGal-3) or human Gal-1 (hGal-1), respectively, to a microplate-adsorbed glycoprotein, asialofetuin (ASF) (Proc Natl Acad Sci USA. 2013 Mar. 26; 110(13):5052-7.). […] The calculated IC50 values may fluctuate depending on the daily assay performance. […]
pIC50 field: float, defined as -log10 of concentration (mol/L).

// below: answered molecules
MOLECULE: CO[C@@H]1[C@@H](n2cc(-c3ccc(F)c(F)c3F)nn2)[C@@H](O)[C@@H](CO)O[C@@H]1Cc1cn(C2(C(F)F)COC2)nn1 [Ex 3.1.53.]
MEASUREMENT TARGET: human Gal-1 (hGal-1) (Homo sapiens, UniProt P09382, C131S/C17S/C43S/C61S/C89S)
pIC50: 6.89

MOLECULE: CO[C@@H]1[C@@H](n2cc(-c3ccc(C)c(F)c3F)nn2)[C@@H](O)[C@@H](CO)O[C@@H]1Cc1cn(C2(C(F)F)COC2)nn1 [Ex 1.1.53.]
MEASUREMENT TARGET: human Gal-1 (hGal-1) (Homo sapiens, UniProt P09382, C131S/C17S/C43S/C61S/C89S)
pIC50: 6.28

MOLECULE: CCC(C)(CC)n1cc(C[C@H]2O[C@H](CO)[C@H](O)[C@H](n3cc(-c4ccc(Cl)c(F)c4F)nn3)[C@H]2OC)nn1 [Ex 2.1.50.]
MEASUREMENT TARGET: human Gal-1 (hGal-1) (Homo sapiens, UniProt P09382, C131S/C17S/C43S/C61S/C89S)
pIC50: 5.80

MOLECULE: CO[C@@H]1[C@@H](n2cc(-c3ccc(Br)c(F)c3F)nn2)[C@@H](O)[C@@H](CO)O[C@@H]1Cc1cn(C23COC(C)(C2)C3)nn1 [Ex 4.1.59.]
MEASUREMENT TARGET: human Gal-1 (hGal-1) (Homo sapiens, UniProt P09382, C131S/C17S/C43S/C61S/C89S)
pIC50: 5.69

MOLECULE: CO[C@@H]1[C@@H](n2cc(-c3ccc(Cl)c(F)c3F)nn2)[C@@H](O)[C@@H](CO)O[C@@H]1Cc1cn(C2CCC2(F)F)nn1 (single isomer, unassigned) [Example 2.1.63.B]
MEASUREMENT TARGET: human Gal-1 (hGal-1) (Homo sapiens, UniProt P09382, C131S/C17S/C43S/C61S/C89S)
pIC50: 5.70

# context switch: different molecule, same pIC50
Query block: Item CO[C@@H]1[C@@H](n2cc(-c3ccc(Cl)c(F)c3F)nn2)[C@@H](O)[C@@H](CO)O[C@@H]1Cc1cn(C2(CF)CC2(F)F)nn1 (some centres unmarked) [Ex 2.1.76.] has what recorded pIC50?
Result block: 6.09

###

target: human Gal-1 (hGal-1) (Homo sapiens, UniProt P09382, C131S/C17S/C43S/C61S/C89S); experiment: Competitive binding assay: biotinylated hGal-1 binding to microplate-adsorbed asialofetuin (ASF); conditions: IC50 values from several measurements given as geomean
pIC50 listing for selected compounds.
pIC50 field: float, defined as -log10 of concentration (mol/L).

COMPOUND: CO[C@@H]1[C@@H](n2cc(-c3ccc(C)c(F)c3F)nn2)[C@@H](O)[C@@H](CO)O[C@@H]1Cc1cn(C23CC(F)(C2)C3)nn1
pIC50: 5.40

Query block: For human Gal-1 (hGal-1) (Homo sapiens, UniProt P09382, C131S/C17S/C43S/C61S/C89S), provide pIC50 of CO[C@@H]1[C@@H](n2cc(-c3ccc(F)c(F)c3F)nn2)[C@@H](O)[C@@H](CO)O[C@@H]1Cc1cn(C23COC(C)(C2)C3)nn1 please.
Result block: 6.28

Query block: For human Gal-1 (hGal-1) (Homo sapiens, UniProt P09382, C131S/C17S/C43S/C61S/C89S), provide pIC50 of CO[C@@H]1[C@@H](n2cc(-c3ccc(C)c(F)c3F)nn2)[C@@H](O)[C@@H](CO)O[C@@H]1Cc1cn([C@]2(C)C[C@H](O)C2)nn1 please.
Result block: 6.17

Query block: For human Gal-1 (hGal-1) (Homo sapiens, UniProt P09382, C131S/C17S/C43S/C61S/C89S), provide pIC50 of CO[C@@H]1[C@@H](n2cc(-c3ccc(Cl)c(F)c3F)nn2)[C@@H](O)[C@@H](CO)O[C@@H]1Cc1cn([C@H]2CCCC[C@H]2F)nn1 please.
Result block: 5.52

Query block: For human Gal-1 (hGal-1) (Homo sapiens, UniProt P09382, C131S/C17S/C43S/C61S/C89S), provide pIC50 of CO[C@@H]1[C@@H](n2cc(-c3ccc(C)c(F)c3F)nn2)[C@@H](O)[C@@H](CO)O[C@@H]1Cc1cn(C23CC(C(F)(F)F)(C2)C3)nn1 please.
Result block: 5.30

###

pIC50 listing for selected compounds.
target: human Gal-3 (hGal-3) (Homo sapiens (Human))
Sequence (P17931 whole entry): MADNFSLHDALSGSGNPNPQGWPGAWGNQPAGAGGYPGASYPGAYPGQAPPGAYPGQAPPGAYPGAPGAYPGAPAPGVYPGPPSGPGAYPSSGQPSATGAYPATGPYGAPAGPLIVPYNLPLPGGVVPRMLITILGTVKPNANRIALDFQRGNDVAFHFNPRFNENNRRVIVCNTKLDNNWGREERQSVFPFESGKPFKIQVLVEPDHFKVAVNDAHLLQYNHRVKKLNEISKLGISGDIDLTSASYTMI
pIC50 field: float, defined as -log10 of concentration (mol/L).

COMPOUND: COCC1(n2cc(C[C@H]3O[C@H](CO)[C@H](O)[C@H](n4cc(-c5ccc(Cl)c(F)c5F)nn4)[C@H]3OC)nn2)CC1 [Ex 2.1.7.]
READING: 7.22
--
COMPOUND: CO[C@@H]1[C@@H](n2cc(-c3ccc(F)c(F)c3F)nn2)[C@@H](O)[C@@H](CO)O[C@@H]1Cc1cn(C2(CCO)COC2)nn1 [Ex 3.1.22.]
READING: 7.22

Query block: For human Gal-3 (hGal-3) (Homo sapiens (Human)), provide pIC50 of CO[C@@H]1[C@@H](n2cc(-c3ccc(Cl)c(F)c3F)nn2)[C@@H](O)[C@@H](CO)O[C@@H]1Cc1cn(C23CC(F)(C2)C3)nn1 [Ex 2.1.25.] please.
Result block: 7.30

Query block: For human Gal-3 (hGal-3) (Homo sapiens (Human)), provide pIC50 of CO[C@@H]1[C@@H](n2cc(-c3ccc(Br)c(F)c3F)nn2)[C@@H](O)[C@@H](CO)O[C@@H]1Cn1cc(C2CCCC2)nn1 [Ex 4.2.32.] please.
Result block: 7.22

Query block: For human Gal-3 (hGal-3) (Homo sapiens (Human)), provide pIC50 of CO[C@@H]1[C@@H](n2cc(-c3ccc(C)c(F)c3F)nn2)[C@@H](O)[C@@H](CO)O[C@@H]1Cn1cc(C(C)(C)O)nn1 [Ex 1.2.34.] please.
Result block: 7.10

###

molecular target: human Gal-1 (hGal-1) (Homo sapiens, UniProt P09382, C131S/C17S/C43S/C61S/C89S); experiment: Competitive binding assay: biotinylated hGal-1 binding to microplate-adsorbed asialofetuin (ASF); conditions: IC50 values from several measurements given as geomean
Checkbox rule: IC50 lower than 1000 nM = 1; IC50 not lower than 1000 nM = 0.

Please review the entries below; each comes with its answer.
COMPOUND: CO[C@@H]1[C@@H](n2cc(-c3ccc(F)c(F)c3F)nn2)[C@@H](O)[C@@H](CO)O[C@@H]1Cn1cc(C2(O)CCOCC2)nn1
GROUP: 1
--
COMPOUND: CO[C@@H]1[C@@H](n2cc(-c3ccc(Cl)c(F)c3F)nn2)[C@@H](O)[C@@H](CO)O[C@@H]1Cn1cc([C@H]2C[C@@H](N)C2)nn1
GROUP: 0

Query block: Is IC50 strictly under 1000 nM for the entry CO[C@@H]1[C@@H](n2cc(-c3ccc(F)c(F)c3F)nn2)[C@@H](O)[C@@H](CO)O[C@@H]1Cc1cn(C2(C)CCC2)nn1 ?
Result block: 1

Query block: Is IC50 strictly under 1000 nM for the entry CO[C@@H]1[C@@H](n2cc(-c3ccc(F)c(F)c3F)nn2)[C@@H](O)[C@@H](CO)O[C@@H]1Cc1cn(C23CC(C2)C3)nn1 ?
Result block: 1

Query block: Is IC50 strictly under 1000 nM for the entry CO[C@@H]1[C@@H](n2cc(-c3ccc(Cl)c(F)c3F)nn2)[C@@H](O)[C@@H](CO)O[C@@H]1Cc1cn(C2(C(F)(F)F)CCOC2)nn1 (stereo partly drawn) [Example 2.1.77.A] ?
Result block: 1

Query block: Is IC50 strictly under 1000 nM for the entry CO[C@@H]1[C@@H](n2cc(-c3ccc(F)c(F)c3F)nn2)[C@@H](O)[C@@H](CO)O[C@@H]1Cn1cc(C2(O)CCCC2)nn1 ?
Result block: 0
